target_desc: Fuc(a1-2)Gal(b1-4)GlcNAc(b1-3)Gal(b1-4)GlcNAc(b1-3)Gal(b1-4)GlcNAc
protocol_text: glycan array binding signal (z-score within array); higher = stronger binding
experimental_conditions: glycan notation: IUPAC condensed, linker removed
This is one part of a sample in which the strongest signals are shown more often than they occur.
Please go through the items and note down their glycan array binding signal (z-score).
The answer should be written as a number, with no unit following it.

Report glycan array binding signal (z-score) for TbCVNHOa (Tuber borchii), Q5MK11 (protein) MSYADSSRNAVLTNGGRTLRAECRNADGNWVTSELDLDTCIGNPNGFLGWGMQNFSHSSEDIKLEEGGRKLTCRPKTVDGGFRERQGIDLNRIQNVNGRLVFQ please.
-0.116

Subsequent entry: AAL (Aleuria aurantia), P18891 (protein) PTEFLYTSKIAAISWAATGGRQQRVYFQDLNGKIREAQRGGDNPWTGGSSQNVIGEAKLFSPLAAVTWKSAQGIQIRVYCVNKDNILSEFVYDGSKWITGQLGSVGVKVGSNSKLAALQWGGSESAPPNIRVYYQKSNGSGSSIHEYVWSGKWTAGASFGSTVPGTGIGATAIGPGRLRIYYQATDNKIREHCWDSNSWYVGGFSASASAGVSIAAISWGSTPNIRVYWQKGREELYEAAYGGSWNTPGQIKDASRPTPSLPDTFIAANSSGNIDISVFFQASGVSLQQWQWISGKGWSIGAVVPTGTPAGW
3.03

Subsequent entry: Codakine (Codakia orbicularis), Q3KVL7_9BIVA (protein) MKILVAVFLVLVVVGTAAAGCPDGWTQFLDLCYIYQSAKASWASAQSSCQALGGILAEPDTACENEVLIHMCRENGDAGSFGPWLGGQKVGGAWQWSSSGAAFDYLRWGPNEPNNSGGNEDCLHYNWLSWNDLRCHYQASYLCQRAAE
-0.235

Subsequent entry: CLEC-6 (Homo sapiens), Q8WXI8 (protein) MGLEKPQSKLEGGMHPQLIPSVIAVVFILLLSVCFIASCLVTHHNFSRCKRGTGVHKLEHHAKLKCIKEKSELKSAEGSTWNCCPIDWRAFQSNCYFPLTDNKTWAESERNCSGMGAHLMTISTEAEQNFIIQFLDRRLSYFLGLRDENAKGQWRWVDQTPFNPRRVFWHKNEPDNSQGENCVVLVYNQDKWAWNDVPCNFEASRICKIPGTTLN
-0.295
